src = the NIST ThermoML archive (doi:10.1021/je900550v)

# test-conditions: 297.4 K; 101.33 kPa; Liquid; Vibrating tube method
recorded-metric: mass density (kg/m3)

CCC(=O)[O-].C[NH2+]CCO [2-hydroxy-N-methylethanaminium propionate] = 1071.74
CC(=O)[O-].C[NH2+]CCO [N-methyl-2-hydroxyethylammonium acetate] = 1101.26
CCCC(=O)[O-].C[NH2+]CCO [N-methyl-2-hydroxyethylammonium butanoate] = 1039.76
C[NH2+]CCO.O=C[O-] [2-hydroxy-N-methylethanaminium formate] = 1128.66
CC(C)C(=O)[O-].C[NH2+]CCO [2-hydroxy-N-methylethanaminium isobutyrate] = 1043.84
CCCCC(=O)[O-].C[NH2+]CCO [2-hydroxy-N-methylethanaminium pentanoate] = 1016.72
